Target: T1, recombinant hIL-6R protein, monomeric form (human, UniProt P08887 20-358)
T1 construct: also called monomeric hIL-6R; Human IL6R
T1 sequence: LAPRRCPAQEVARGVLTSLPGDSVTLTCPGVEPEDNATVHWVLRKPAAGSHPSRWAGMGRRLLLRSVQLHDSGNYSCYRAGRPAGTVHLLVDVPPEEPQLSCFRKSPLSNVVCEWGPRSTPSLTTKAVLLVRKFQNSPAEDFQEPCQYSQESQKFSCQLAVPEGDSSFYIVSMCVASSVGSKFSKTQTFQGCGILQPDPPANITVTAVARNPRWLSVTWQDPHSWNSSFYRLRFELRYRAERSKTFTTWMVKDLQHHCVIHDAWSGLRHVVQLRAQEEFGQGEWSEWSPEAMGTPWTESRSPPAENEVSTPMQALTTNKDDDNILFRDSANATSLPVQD
Assay: SPR (BIAcore), captured mouse-IgG antibody, monomeric hIL-6R 1.56-12.5 nM
MEASURE: kon (M⁻¹ s⁻¹)
All answers are understood in M⁻¹ s⁻¹, so give the number only.

Look up kon for this binder: VV6A9-5 (antibody, V domains shown, Human variable regions with mouse constant region; also called VV6A9-5 mIgG2a) VH: EVQLVESGGGLVQPGRSLRLSCAASGFTFDDYALHWVRQAPGKGLEWVSGVSWNGGRIGYADSVKGRFTISRDNAKNSLFLQMNSLRVEDTALYYCAKGRDAFDIWGQGTLVTVSS VL: DIQMTQSPSSVSASVGDRVTITCRASQGISSWLAWYQQKPGKAPKLLIYAASSLQSGVPSRFSGSGSGTDFTLTISSLQPEDFATYYCQHAYSFPYTFGQGTKLEIK 772000
